# MEASURED_ON: Carnitine O-palmitoyltransferase 1, muscle isoform (Homo sapiens)
# Sequence (Q92523 whole entry, canonical isoform): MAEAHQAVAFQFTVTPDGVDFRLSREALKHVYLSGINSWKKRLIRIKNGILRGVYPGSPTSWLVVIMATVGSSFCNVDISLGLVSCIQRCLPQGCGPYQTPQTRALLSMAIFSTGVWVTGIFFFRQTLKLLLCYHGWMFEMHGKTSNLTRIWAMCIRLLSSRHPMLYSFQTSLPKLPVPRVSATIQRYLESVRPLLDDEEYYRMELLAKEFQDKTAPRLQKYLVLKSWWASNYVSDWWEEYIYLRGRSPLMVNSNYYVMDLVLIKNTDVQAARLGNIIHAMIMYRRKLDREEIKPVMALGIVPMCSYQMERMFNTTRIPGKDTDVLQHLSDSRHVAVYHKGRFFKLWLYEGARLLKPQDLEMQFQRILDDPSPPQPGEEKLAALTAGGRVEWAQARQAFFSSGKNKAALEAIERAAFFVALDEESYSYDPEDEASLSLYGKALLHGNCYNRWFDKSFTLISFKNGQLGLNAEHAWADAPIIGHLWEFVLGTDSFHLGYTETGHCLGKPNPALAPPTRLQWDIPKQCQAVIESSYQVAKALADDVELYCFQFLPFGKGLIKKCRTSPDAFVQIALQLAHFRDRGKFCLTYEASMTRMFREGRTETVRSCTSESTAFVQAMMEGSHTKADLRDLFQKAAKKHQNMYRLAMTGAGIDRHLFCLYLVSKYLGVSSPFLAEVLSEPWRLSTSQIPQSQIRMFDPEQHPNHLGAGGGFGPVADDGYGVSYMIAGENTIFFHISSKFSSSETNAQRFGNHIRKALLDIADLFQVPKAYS
# EXPERIMENT_DESCRIPTION: SUPPLEMENTARY: Inhibition of Carnitine palmitoyltransferase 1, muscle isoform
QUANTITY_NAME: IC50

Consider the worked cases shown below.
> print(dat)
                               smiles.input  reported.value
1  O=C(O)c1ccc(NC(=O)c2ccc3c(c2)N(Cc2cccc(Cl)c2)C(=O)CS3(=O)=O)cc1         5.17 µM
2  COc1cccc2c1CCN(C(=O)[C@H]1CCCCN1C(=O)COc1ccccc1)C2        > 100 µM
3  NC(=O)c1cn2ccc(-c3noc([C@H]4CCCCN4C(=O)COc4ccccc4)n3)cc2n1        > 100 µM
4  O=C(COc1ccccc1)N1CCCC[C@@H]1c1nc(-c2ccc(F)c(F)c2)n[nH]1        > 100 µM

q: Form: Entry = O=C(COc1ccccc1)N1CCCC[C@@H]1c1noc(-c2ccc3[nH]c(=O)c(=O)[nH]c3c2)n1 | System = Carnitine O-palmitoyltransferase 1, muscle isoform (Homo sapiens) | IC50 = ____
a: > 100 µM
